- System: MDA-MB-435
- experimental-details: NCI tumour cell line growth inhibition, 48 h
Calls of active or inactive are those of the source. No stated cut-off is given here; in the data, active = GI50 up to about 1.1 µM and inactive = higher.
Could you please pick one outcome from this set? yes (1) for active, no (0) for inactive

Input line: Hi, sorry to bother you, what did the test record for COc1ccc(COCCOCc2nc(C#N)c(N)o2)cc1 ?
Output line: no (0)

Input line: Moving on to the next compound: O=c1oc2nc(-c3ccccc3)cc(C(F)(F)F)c2n1Cc1ccccc1
Output line: yes (1)

Input line: Moving on to the next compound: Nc1ncc2ncn(C3CCC(CO)O3)c2n1 (stereo not given)
Output line: no (0)

Input line: Moving on to the next compound: CN1CCN(C2CC(=O)c3c(Cl)sc(Cl)c32)CC1 (stereo not given)
Output line: no (0)

Input line: Moving on to the next compound: CC/C=C/C(/C=C/C[C@]1(CC)C[C@H](CC)[C@H](CC(=O)O)OO1)CC (stereo not given in full)
Output line: no (0)

Input line: Moving on to the next compound: Cc1ccc(C2=CC(=O)/C(=C\C(=O)c3ccc(Br)cc3)O2)c(C)c1
Output line: no (0)

Input line: Moving on to the next compound: CCOc1ccc(-n2c(=O)c3nn4c(=O)n(-c5ccc(OCC)cc5)c(=O)c4nn3c2=O)cc1
Output line: no (0)

Input line: Moving on to the next compound: CN(CCNC(=O)c1n[nH]c2c1Cc1ccccc1-2)CCNC(=O)c1n[nH]c2c1Cc1ccccc1-2
Output line: no (0)

Input line: Moving on to the next compound: N#CS/C(C(Cl)=C(Cl)Cl)=C(/Cl)[N+](=O)[O-]
Output line: no (0)

Input line: Moving on to the next compound: COC(CO[Si](C)(C)N[Si](C)(C)OCC(OC)c1ccccc1)c1ccccc1 (stereo not given)
Output line: no (0)

* * *

So I've got a bunch of compounds here, and I need their GI50 values.
- System: U-251
- experimental-details: NCI tumour cell line growth inhibition, 48 h
Active and inactive are the calls of the source. Rule as the data show it: active = GI50 up to about 1.1 µM and inactive = higher.

Input line: Consider the compound CC(=O)OCC1OC(n2c3c(cc(C#N)c2=O)CCCCCC3)C(OC(C)=O)C(OC(C)=O)C1OC(C)=O (centres undefined) and give its measured GI50.
Output line: > 100 µM (inactive)

Input line: Moving on to the next compound: CC(=O)N1CCN(C=S)CC1
Output line: > 100 µM (inactive)

Input line: Moving on to the next compound: C=C1CN2CC(=C)CN(C1)CS(=O)(=O)N1CC(=C)CN(CC(=C)C1)S(=O)(=O)N1CC(=C)CN(CC(=C)C1)S(=O)(=O)C2
Output line: 32.7 µM (inactive)

Input line: Moving on to the next compound: Cc1cc(OCC(=O)O)c(Cl)cc1Cl
Output line: > 100 µM (inactive)

* * *

- Tested on: UO-31
- experimental-details: NCI tumour cell line growth inhibition, 48 h
Calls of active or inactive are those of the source. Cut-off read from the data, not from the text of the source: active = GI50 up to about 1.1 µM and inactive = higher.
Could you please pick one outcome from this set? active, inactive

Input line: Hi, sorry to bother you, what did the test record for O=C(Nc1ccccc1-c1nn(C(=S)Nc2ccccc2)c(=S)n(C(=S)Nc2ccccc2)c1=O)C(F)(F)F ?
Output line: inactive

Input line: Moving on to the next molecule: CCC1(O)C(=O)OCc2c1cc1n(c2=O)Cc2c-1nc1ccccc1c2OC (stereo not given)
Output line: active

Input line: Moving on to the next molecule: O=C(C=P(c1ccccc1)(c1ccccc1)c1ccccc1)c1ccccc1-c1ccccc1C(=O)C=P(c1ccccc1)(c1ccccc1)c1ccccc1
Output line: active

Input line: Moving on to the next molecule: COC(=O)/C=C/c1c(CC=C(C)C)ncn1C
Output line: inactive

Input line: Moving on to the next molecule: CCOC(=O)C1=C(C)N2CCCOC2(C)C(C(=O)OC)C1c1cccc([N+](=O)[O-])c1 (stereo not given)
Output line: inactive

* * *

- Test system: EKVX
- experimental-details: NCI tumour cell line growth inhibition, 48 h
Calls of active or inactive are those of the source. Rule as the data show it: active = GI50 up to about 1.1 µM and inactive = higher.
Could you please pick one outcome from this set? YES for active, NO for inactive

Input line: Hi, sorry to bother you, what did the test record for Cc1cc2ccccc2oc(=O)/c1=N\Nc1ccccc1 ?
Output line: NO

Input line: Moving on to the next compound: Clc1ccc(C2=Nc3ccccc3SC(c3ccc(Cl)c(Cl)c3)C2)c(Cl)c1 (stereo not given)
Output line: NO

Input line: Moving on to the next compound: Cn1c2ccccc2c2c(=S)c3ccccc3ccc21
Output line: NO

Input line: Moving on to the next compound: CCOC(=O)C12CN(C34CC5CC(CC(C5)C3)C4)CC(C(=O)OCC)(C1=O)C(c1ccccc1)OC2c1ccccc1 (stereo not given)
Output line: NO

Input line: Moving on to the next compound: Cc1ccc(C2COc3cc(O)c(O)cc3C2)cc1 (stereo not given)
Output line: NO

Input line: Moving on to the next compound: C/C(=N\NC(=S)N(C)C)c1ccccn1
Output line: YES

Input line: Moving on to the next compound: O=C(O)CC(NC(=O)/C(=C/c1ccccc1O)NC(=O)c1ccccc1)C(=O)O (stereo not given)
Output line: NO

Input line: Moving on to the next compound: O=C(CC1(O)C(=O)Nc2ccccc21)c1ccc(Cl)cc1Cl (stereo not given)
Output line: NO

Input line: Moving on to the next compound: C[N+](C)(C)CCCCCc1c2nc(c(CCCCC[N+](C)(C)C)c3ccc([nH]3)c(CCCCC[N+](C)(C)C)c3nc(c(CCCCC[N+](C)(C)C)c4ccc1[nH]4)C=C3)C=C2
Output line: NO

Input line: Moving on to the next compound: CN(C)CC(C)(C)/C(=N\Nc1ccccc1)c1ccccc1
Output line: NO

* * *

So I've got a bunch of compounds here, and I need their GI50 values.
- Test system: HL-60
- experimental-details: NCI tumour cell line growth inhibition, 48 h
Activity calls are given as the source filed them. Cut-off read from the data, not from the text of the source: active = GI50 up to about 1.1 µM and inactive = higher.

Input line: Give GI50 (HL-60) of the following compound: CC(=O)N1CCN(C=S)CC1
Output line: > 100 µM (inactive)

Input line: Moving on to the next compound: Nc1csc(-c2scc3c2OCCO3)c1N
Output line: 20.5 µM (inactive)

Input line: Moving on to the next compound: Clc1c2nc3ccccc3c-2[nH]c2ccccc12
Output line: 15.6 µM (inactive)

Input line: Moving on to the next compound: COc1cc(/C=C/c2ccc(OC)c(OC)c2)oc(=O)c1
Output line: > 91.6 µM (inactive)

Input line: Moving on to the next compound: Oc1cc(-c2ccc3c(c2)OCO3)nc2cc3c(cc12)OCO3
Output line: 24.5 µM (inactive)

Input line: Moving on to the next compound: CC1=C(OC2OC(CO)C(O)C(O)C2O)C(=O)C[C@H]2C1=CC[C@@H]1[C@@]2(C)C(=O)C[C@]2(C)[C@@H]([C@@](C)(O)C(=O)CCC(C)(C)O)[C@H](O)C[C@@]12C (some centres undefined)
Output line: > 100 µM (inactive)

Input line: Moving on to the next compound: CC(=O)NC1=C(Nc2ccc(C)cc2)C(=O)c2ccccc2C1=O
Output line: 10.2 µM (inactive)

Input line: Moving on to the next compound: Cc1c2c(cc[n+]1C)O[B-](c1ccccc1)(c1ccccc1)O2
Output line: 35.1 µM (inactive)

Input line: Moving on to the next compound: COC1(CC[C@@H](C)COC2OC(CO)C(O)C(O)C2O)O[C@H]2C[C@H]3[C@@H]4CC=C5C[C@@H](OC6OC(CO)C(OC7OC(C)C(O)C(O)C7O)C(O)C6OC6OC(C)C(O)C(O)C6O)CC[C@]5(C)[C@H]4CC[C@]3(C)[C@H]2[C@@H]1C (some centres undefined)
Output line: 18.2 µM (inactive)

Input line: Moving on to the next compound: CCCCNS(=O)(=O)c1n[nH]c(=O)[nH]c1=O
Output line: > 100 µM (inactive)

Input line: Moving on to the next compound: CCCC(Sc1nc(N)nc2nc[nH]c12)C(=O)O (centres undefined)
Output line: > 100 µM (inactive)

Input line: Moving on to the next compound: Cc1ccc(NC(Nc2ccc(C)cc2C)=C(C(Cl)=C(Cl)Cl)[N+](=O)[O-])c(C)c1
Output line: 4.12 µM (inactive)

Input line: Moving on to the next compound: c1ccc([P+](CCSCCSCC[P+](c2ccccc2)(c2ccccc2)c2ccccc2)(c2ccccc2)c2ccccc2)cc1
Output line: > 100 µM (inactive)

Input line: Moving on to the next compound: CCOC(=O)NC(Nc1ccc(S(=O)(=O)Nc2nc(C)cc(C)n2)cc1)(C(=O)OCC)C(F)(F)F (centres undefined)
Output line: > 100 µM (inactive)

Input line: Moving on to the next compound: CC(=O)Nc1ccc(-c2nnc(SCC(=O)Nc3cccc(Cl)c3)o2)cc1
Output line: 18.2 µM (inactive)

Input line: Moving on to the next compound: CC(C)(C)c1cc(OCc2nnc3sc(S)nn23)c(Cl)cc1OCc1nnc2sc(S)nn12
Output line: 22.5 µM (inactive)

Input line: Moving on to the next compound: CC1=NN=C(N)N/C1=C\C(Sc1ccc(Cl)cc1)c1ccc(Cl)cc1Cl (centres undefined)
Output line: 3.74 µM (inactive)

Input line: Moving on to the next compound: Cc1ccc2nc(Cl)c(/C=N/N3C(=O)/C(=C/Cc4ccco4)N=C3c3ccccc3)cc2c1
Output line: 34.1 µM (inactive)

Input line: Moving on to the next compound: CC(=O)OCC1OC(n2c3c(cc(C#N)c2=O)CCCCCC3)C(OC(C)=O)C(OC(C)=O)C1OC(C)=O (centres undefined)
Output line: > 100 µM (inactive)

Input line: Moving on to the next compound: CCOC(=O)C(C)c1nc2cc(N3CCOCC3)c(F)cc2[nH]c1=O (centres undefined)
Output line: > 100 µM (inactive)

Input line: Moving on to the next compound: C[n+]1c(-c2ccc(/C=N/N=C/c3ccc(-c4cn5ccccc5[n+]4C)cc3)cc2)cn2ccccc21
Output line: > 100 µM (inactive)

Input line: Moving on to the next compound: NS(=O)(=O)c1ccccc1C(=O)N/N=C(\c1nc2ccc([N+](=O)[O-])cc2[nH]c1=O)C(O)c1ccc([N+](=O)[O-])cc1 (centres undefined)
Output line: > 100 µM (inactive)

Input line: Moving on to the next compound: COc1cc2oc(-c3ccc4c(c3)OCO4)c(OC)c(=O)c2c(OC)c1O
Output line: 28.7 µM (inactive)

Input line: Moving on to the next compound: O=c1[nH]nc(Cc2ccccc2)n1/N=C/c1ccccc1O
Output line: > 100 µM (inactive)

Input line: Moving on to the next compound: COc1cc(/C=C/C2=NN(c3cccc(S(=O)(=O)O)c3)C3(C2)SCC(=O)N3c2nc3ccccc3s2)cc(OC)c1OC (centres undefined)
Output line: 23.8 µM (inactive)

Input line: Moving on to the next compound: Nc1ccc(-c2nc3cc(F)ccc3s2)cc1Cl
Output line: 3.64 µM (inactive)

Input line: Moving on to the next compound: COc1ccc(/C=C/c2cc(OC)c(OC)c(OC)c2)cc1OC
Output line: > 70.3 µM (inactive)

Input line: Moving on to the next compound: Cc1ccc(/C=C/C(=O)c2cccc3ccccc23)cc1
Output line: 7.18 µM (inactive)

Input line: Moving on to the next compound: CC(=O)C(C(=O)c1ccc(C)cc1)[C@@H]1OC(C)(C)O[C@@H]1[C@H]1COC(C)(C)O1 (some centres undefined)
Output line: 1.67 µM (inactive)

Input line: Moving on to the next compound: CCCCOC(=O)C1CN2C(=NC1(C(F)(F)F)C(F)(F)F)Sc1ccccc12 (centres undefined)
Output line: 16.6 µM (inactive)

Input line: Moving on to the next compound: CCOP(=O)(OCC)/C(=C\n1c(=S)[nH]c2cc(C)ccc21)C(=O)OC
Output line: 42.6 µM (inactive)

Input line: Moving on to the next compound: C=C1CN2CC(=C)CN(C1)CS(=O)(=O)N1CC(=C)CN(CC(=C)C1)S(=O)(=O)N1CC(=C)CN(CC(=C)C1)S(=O)(=O)C2
Output line: 35 µM (inactive)

Input line: Moving on to the next compound: O=C1CC(O)C=C1Nc1ccc(Cl)cc1 (centres undefined)
Output line: 13.1 µM (inactive)

Input line: Moving on to the next compound: CC(=O)c1c2c(cc3c1CCC3)CCC2
Output line: > 100 µM (inactive)

Input line: Moving on to the next compound: CCOC(=O)c1c(OCC)[nH]c(=O)c(C(c2ccc(F)cc2)c2c(O)c(C(=O)OCC)c(OCC)[nH]c2=O)c1O
Output line: 17.2 µM (inactive)

Input line: Moving on to the next compound: O=C1CCC2(CC1CCSc1ccccc1)OCCO2 (centres undefined)
Output line: 95.1 µM (inactive)

Input line: Moving on to the next compound: COc1ccc(C2=NC(CO)[C@H](c3ccccc3)O2)cc1OC (some centres undefined)
Output line: > 100 µM (inactive)

Input line: Moving on to the next compound: CN1CCN(C2CC(=O)c3c(Cl)sc(Cl)c32)CC1 (centres undefined)
Output line: 19.9 µM (inactive)

Input line: Moving on to the next compound: O=C(O)CNS(=O)(=O)c1ccc(NC(=O)CI)cc1
Output line: 18.2 µM (inactive)

These data points were gathered from ChEMBL document CHEMBL1201862.
